Kindly supply the reported TGI values for the records listed here.
System: K-562 leukemia
Experiment: NCI tumour cell line growth inhibition, 48 h

O=C(O)CC(O)(C(=O)O)C(O)C(=O)O (stereo not drawn); > 1000 µM
CCOC(=S)SCN1C(=O)c2ccccc2S1(=O)=O; > 100 µM
C=CC1(c2ccc(OC)cc2)OCCCO1; > 100 µM
Cc1ccc(S(=O)OC23CC4CC(CC(C4)C2)C3)cc1 (stereo not drawn); > 100 µM
O=c1c2c3c(sc2n2c(-c4ccc(Br)cc4)nnc2n1Cc1ccccc1)CCCC3; > 100 µM
COc1ccc2c(c1)OCCC1=C2SCC2(C)CCN=C12 (stereo not drawn); > 100 µM
O=C(CC(=O)c1ccccc1)c1ccccc1; > 100 µM
c1ccc(CCn2cncn2)cc1; > 100 µM
CN(C)c1ccc(/C=c2/c3cc([N+](=O)[O-])ccc3n3c2cc(-c2ccccc2)[n+]3C)cc1; 7.42 µM
COP(C)(=O)C(Cc1c[nH]c2ccccc12)NC(=O)OCc1ccccc1 (stereo not drawn); > 100 µM

Required: TGI, one value per compound below.
1. C#CCN(C)C(=O)N(CC#C)N=O
2. O=C(Nc1cc(-c2cccnc2)nc(NCCCN2CCOCC2)n1)c1cc(Br)cc(C(F)(F)F)c1
3. COc1ccc2nc3cccc(C(=O)NCCN(C)C)c3nc2c1
4. CSC1=C(C(=O)Nc2ccccc2)C(N)=NC1=O

a:
> 100 µM
21.7 µM
6.94 µM
> 100 µM

Required: TGI, one value per compound below.
1. COc1ccccc1NCC(=O)Nn1c(C)nc2ccc(S(=O)(=O)Nc3ccccc3OC)cc2c1=O
2. Cc1ccc(NC(=O)CCC(=O)C(C#N)c2ccccc2)cc1C (stereo not drawn)
3. C[N+](C)(N)c1nc(N)c(C#N)c(C#N)c1C#N
4. COc1ccc(/C=N/Nc2nc(C)c3c(n2)Nc2ccccc2NC3=O)cc1

a:
1. > 100 µM
2. > 100 µM
3. > 10 µM
4. > 100 µM

====

Kindly supply the reported TGI values for the records listed here.
Test system: ACHN renal
Experiment: NCI tumour cell line growth inhibition, 48 h

Record excerpt, results attached:
COc1cccc(-c2cc(=O)c3cc(Cl)cnc3[nH]2)c1; 55.4 µM
CC1(C)c2ccccc2C(O)C12CCC(=O)CC2 (stereo unspecified); > 100 µM
NCCCC[C@H](N)C(=O)Nc1ccc(-c2nc3ccccc3s2)cc1Cl; 29.3 µM

Required: TGI, one value per compound below.
1. COC(=O)Cc1nc2ccccc2o1
2. CCOP(=O)(OCC)C(Nc1ccc(F)cc1)c1ccccc1 (stereo unspecified)
3. C1CC[N-]CC1.CC(=N\O)/C(C)=N/O.CC(=N\O)/C(C)=N/O.[CH2-]CCN1CCOCC1.[Co+2]
4. CCCCCCNC(=O)Oc1ccc(/C(=C(\C)c2ccccc2)c2ccc(OCCN(CC)CC)cc2)cc1
5. CCOC(=S)SCN1C(=O)c2ccccc2S1(=O)=O
6. C[N+](C)(N)c1nc(N)c(C#N)c(C#N)c1C#N
7. COc1ccc(C[C@@H]2OC3(C=CC(=O)C=C3)O[C@H]2Cc2ccc(OC)cc2)cc1
8. COc1cc2c(c(OC)c1OC)-c1ccc(SC)cc1C(=O)CC2

a:
> 100 µM
> 100 µM
> 100 µM
12.2 µM
30.5 µM
> 10 µM
1.16 µM
> 100 µM

====

Kindly supply the reported TGI values for the records listed here.
Test system: HCT-15 colon
Assay: NCI tumour cell line growth inhibition, 48 h

Record excerpt, results attached:
CC1(C)C2CCC(N)(C2)C1O (configuration not stated); > 100 µM
c1ccc(C2[C@@H]3CCCc4ccccc4C3=NN2c2ccccc2)cc1 (some centres not stated); > 100 µM
CC1CN=C(c2ccc(COc3ccc(C4=NCC(C)N4)cc3)cc2)N1 (configuration not stated); > 100 µM

Required: TGI, one value per compound below.
1. Nc1c(C(=O)Nc2cccc(Br)c2)sc2nc3c(cc12)C(O)CCC3 (configuration not stated)
2. OC(CN1CCCCC1)c1ccc(/C=C/c2ccc(Cl)cc2)cc1 (configuration not stated)
3. N#C/C(=C\c1ccccc1Br)C(=O)c1ccccc1
4. NS(=O)(=O)c1ccc(NC(=O)COC(=O)c2cccc3c(=O)c4ccccc4[nH]c23)cc1
5. COc1cc([C@@H]2c3cc4c(cc3C(OC3O[C@@H]5COC(C)O[C@H]5[C@H](O)[C@H]3O)C3COC(=O)[C@@H]32)OCO4)cc(OC)c1O (some centres not stated)
6. Cc1ccc2c(=O)c(-c3n[nH]c(=S)s3)c[nH]c2n1

a:
1: > 100 µM; 2: 76.3 µM; 3: > 47.2 µM; 4: > 100 µM; 5: > 50 µM; 6: > 100 µM

====

System: SF-268 CNS
Assay: NCI tumour cell line growth inhibition, 48 h
readout.label: GI50

CCOC(=O)Cc1csc(NC(=O)COC(=O)c2ccc(OC)cc2)n1; 16.6 µM
Cc1sc2ncn(Cc3ccc(Cl)c(Cl)c3)c(=O)c2c1C; 25.5 µM

# input for lookup
The compound COc1cc([C@@H]2c3cc4c(cc3C(OC3O[C@@H]5COC(C)O[C@H]5[C@H](O)[C@H]3O)C3COC(=O)[C@@H]32)OCO4)cc(OC)c1O (stereo partly drawn) showed GI50 equal to 1.22 µM

====

Tested on: OVCAR-8 ovarian
Experiment: NCI tumour cell line growth inhibition, 48 h
readout.label: GI50

CCCCOc1ccc(/C=N/Nc2cc(C)nc3ccc(Cl)cc23)cc1; 1.78 µM
CCOC(=O)Cc1csc(NC(=O)COC(=O)c2ccc(OC)cc2)n1; 47.5 µM

# value of GI50, OVCAR-8 ovarian, item `O=C1c2ccn(CCCCN3CCC(O)CC3)c2C(=O)c2c1c(O)c1ccccc1c2O` = 25.6 µM

====

Kindly supply the reported TGI values for the records listed here.
Test system: OVCAR-8 ovarian
Experiment: NCI tumour cell line growth inhibition, 48 h

Record excerpt, results attached:
O=C(c1ccccc1)C1C(C(=O)c2ccccc2)C(c2ccccc2)N(c2ccccc2)C1c1ccccc1 (stereo not given); > 100 µM
Cc1ccc2c(=O)c(-c3n[nH]c(=S)s3)c[nH]c2n1; > 100 µM
CCCn1c(N)c(C(=O)CNc2ccc(I)cc2)c(=O)[nH]c1=O; > 100 µM

Required: TGI, one value per molecule below.
1. C#CCCCC(=O)N(C(=O)CS(=O)CC)c1ccccc1 (stereo not given)
2. COC(=O)[C@H](CCSC)NC(=O)c1ccc(CNC(=O)/C(C)=C/c2ccccc2)cc1

a:
1. > 100 µM
2. 51.4 µM

====

Kindly supply the reported GI50 values for the records listed here.
System: NCI-H522 lung
Assay: NCI tumour cell line growth inhibition, 48 h

Record excerpt, results attached:
Oc1c(CN2CCOCC2)cc(COCc2ccccc2)c2cccnc12; 1.79 µM
N#Cc1cccc(OCc2ccccc2COc2cccc(C#N)c2)c1; 98.1 µM
COC(=O)[C@]12CC[C@@H](C)[C@H](C)[C@@H]1C1=CC[C@@H]3[C@@]4(C)CC(=O)[C@H](OC(=O)c5ccco5)[C@@]5(C)COC(=C45)C[C@@]3(C)[C@]1(C)CC2; 3.1 µM
COc1ccc(NC(=O)/C=C(C)/C=C/C=C(C)\C=C\C2=C(C)CCCC2(C)C)cc1; 28.2 µM
COc1ccc2[nH]c(O)c(/C=c3/cc4c(c(-c5ccc(F)cc5)n3)=Nc3ccccc3-4)c2c1; 1.86 µM
CCCn1c(N)c(C(=O)CNc2ccc(I)cc2)c(=O)[nH]c1=O; 16 µM
C1C[OH+]CC[OH+]CC[OH+]CC[OH+]CC[OH+]CC[OH+]1.[Cl-].[Nb+5]; > 100 µM

# input for lookup
The compound COc1c(N2CCN(Cn3c(O)c(N=NC(=O)c4ccncc4)c4cc(F)ccc43)C(C)C2)c(F)cc2c(=O)c(C(=O)O)cn(C3CC3)c12 (stereo not drawn) showed GI50 equal to > 50 µM

====

Tested on: DU-145 prostate
Assay: NCI tumour cell line growth inhibition, 48 h
Kindly supply the reported TGI values for the records listed here.

N=C(c1cccs1)C1(N2CCCCC2)CCCCC1; 30.4 µM

Required: TGI, one value per compound below.
1. N#Cc1c2c(c(-c3cccs3)n(C3OC(CO)C(O)C(O)C3O)c1=S)CCc1ccccc1-2 (centres undefined)
2. Brc1cccc[n+]1-c1ccc2cc(-[n+]3ccccc3Br)ccc2c1
3. CC[C@H](NC(=O)[C@H](CS(=O)(=O)CC1CC1)N[C@@H](c1ccc(F)cc1)C(F)(F)F)C(=O)C(=O)NC1CC1
4. C[N+](C)(N)c1nc(N)c(C#N)c(C#N)c1C#N

a:
> 100 µM
35.5 µM
> 100 µM
> 10 µM

Required: TGI, one value per compound below.
1. OC1c2ccccc2C(O)C2OC12 (centres undefined)
2. O=C(CCl)Nc1cc(O)c2c(c1)C(=O)c1cccc(O)c1C2=O
3. CC[C@H](C)C1=C(OC(C)=O)[N@+]2([O-])Oc3ccc(-c4c(OC(C)=O)c(OC(C)=O)c(-c5ccc(OC(C)=O)cc5)c(OC(C)=O)c4OC(C)=O)cc3O[C@]2([C@@H](C)CC)C(=O)N1OC(C)=O
4. CCCCCCCCCCCCCCCCP(=O)([O-])OCC[N+](C)(C)C
5. Oc1ccc(Cl)cc1-c1cc(-c2ccc(F)cc2)n[nH]1
6. O=C(CC(=O)c1ccccc1)c1ccccc1
7. CC1(C)CC[C@]2(C(=O)O)[C@H](O)C[C@]3(C)C(=CC[C@@H]4[C@@]5(C)CC[C@H](OC6OC(C(=O)O)C(O)C(O)C6O)C(C)(C)[C@@H]5CC[C@]43C)[C@@H]2C1 (some centres undefined)

a:
["> 100 µM", "2.94 µM", "> 50 µM", "28.3 µM", "10.8 µM", "65.3 µM", "> 100 µM"]

Required: TGI, one value per compound below.
1. O=S(=O)(/N=C(\NO)Nc1ccc(Cl)cc1)c1ccc(-c2ccccn2)s1
2. CC1(C)[C@@H](OC(N)=O)C=C[C@]2(C=O)[C@H]3CC[C@]4(C)[C@@H](c5ccc(=O)oc5)[C@@H](Cl)C[C@]4(O)C3=CC[C@@H]12

a:
> 100 µM
0.00785 µM

Required: TGI, one value per compound below.
1. Cc1ccc2c(=O)c(-c3n[nH]c(=S)s3)c[nH]c2n1
2. C1CC[N-]CC1.CC(=N\O)/C(C)=N/O.CC(=N\O)/C(C)=N/O.[CH2-]CCN1CCOCC1.[Co+2]

a:
1. > 100 µM
2. > 100 µM
